Experiment: Cytotoxicity against human SJG2 cells at 100 uM after 72 hrs by MTT assay
Assay type: functional
Details: SJ-G2, 72 h
The following compounds are shown together with reported inhibition at 100 µM values.
measured endpoint: inhibition at 100 µM (%)

O=C1[C@@H]2[C@H](C(=O)N1CCCN1C(=O)[C@@H]3[C@H](C1=O)[C@@H]1CC[C@H]3O1)[C@@H]1CC[C@H]2O1    10
CCCCCCCCCCCCN1C(=O)[C@@H]2[C@H](C1=O)[C@@H]1CC[C@H]2O1    58
O=C1[C@@H]2[C@H](C(=O)N1CC(O)CO)[C@@H]1CC[C@H]2O1 (some centres not stated)    27

###

Experiment: Cytotoxicity against human SJG2 cells at 100 uM after 72 hrs by MTT assay
Assay type: functional
Settings: SJ-G2, 72 h
measured endpoint: inhibition at 100 µM (%)

O=C1[C@@H]2[C@H](C(=O)N1c1ccc(O)cc1)[C@@H]1CC[C@H]2O1    44
O=C1[C@@H]2[C@H](C(=O)N1CCCCCCO)[C@@H]1CC[C@H]2O1    12
C=CCN1C(=O)[C@@H]2[C@H](C1=O)[C@@H]1CC[C@H]2O1    2
COc1ccc(CN2C(=O)[C@@H]3[C@H](C2=O)[C@@H]2CC[C@H]3O2)cc1    11
O=C1[C@@H]2[C@H](C(=O)N1c1ccccc1)[C@@H]1CC[C@H]2O1    42

###

Assay: Cytotoxicity against human SJG2 cells at 100 uM after 72 hrs by MTT assay
Type: functional
Conditions: SJ-G2, 72 h
measured endpoint: inhibition at 100 µM

O=C1[C@@H]2[C@H](C(=O)N1CCO)[C@@H]1CC[C@H]2O1    < 10%
O=C(O)c1ccc(N2C(=O)[C@@H]3[C@H](C2=O)[C@@H]2CC[C@H]3O2)cc1    < 10%
CCC(CO)N1C(=O)[C@@H]2[C@H](C1=O)[C@@H]1CC[C@H]2O1 (stereo partly drawn)    < 10%
CCN1C(=O)[C@@H]2[C@H](C1=O)[C@@H]1CC[C@H]2O1    < 10%
O=C1[C@@H]2[C@H](C(=O)N1c1ccc([N+](=O)[O-])cc1)[C@@H]1CC[C@H]2O1    23%
CCCCCCCCN1C(=O)[C@@H]2[C@H](C1=O)[C@@H]1CC[C@H]2O1    54%
O=C1[C@@H]2[C@H](C(=O)N1CC1CO1)[C@@H]1CC[C@H]2O1 (stereo partly drawn)    25%
O=C(O)CCCN1C(=O)[C@@H]2[C@H](C1=O)[C@@H]1CC[C@H]2O1    < 10%

###

Experiment: Cytotoxicity against human SJG2 cells at 100 uM after 72 hrs by MTT assay
Type: functional
Details: SJ-G2, 72 h
The following compounds are shown together with reported inhibition at 100 µM values.
measured endpoint: inhibition at 100 µM

O=C1[C@@H]2[C@H](C(=O)N1N1CCOCC1)[C@@H]1CC[C@H]2O1    3%
CCCCCCCCCCCCCCCCCCN1C(=O)[C@@H]2[C@H](C1=O)[C@@H]1CC[C@H]2O1    < 10%
CCCN1C(=O)[C@@H]2[C@H](C1=O)[C@@H]1CC[C@H]2O1    < 10%
O=C1[C@@H]2[C@H](C(=O)N1C1CCCCC1)[C@@H]1CC[C@H]2O1    < 10%
O=C1[C@@H]2[C@H](C(=O)N1CCN1CCOCC1)[C@@H]1CC[C@H]2O1    < 10%
COC(CO)CN1C(=O)[C@@H]2[C@H](C1=O)[C@@H]1CC[C@H]2O1 (stereo partly drawn)    < 10%
CCCCCCCCCCN1C(=O)[C@@H]2[C@H](C1=O)[C@@H]1CC[C@H]2O1    72%
CCCCN1C(=O)[C@@H]2[C@H](C1=O)[C@@H]1CC[C@H]2O1    < 10%
